Heat shock protein HSP 90-alpha (Homo sapiens, UniProt P07900): recorded pIC50 for assorted compounds
pIC50: −log10 of the molar value.
quantity-name: pIC50

smiles_entry=Cc1c2c(n3c1CCCN1CCNC[C@H]1CNc1cc-3ccc1C(N)=O)CC(C)(C)CC2=O bound_sign== readout_number=5.48
smiles_entry=Cc1c2c(n3c1CCCN1C[C@@H](N4CCCC4)C[C@@H]1CNc1cc-3ccc1C(N)=O)CC(C)(C)CC2=O bound_sign== readout_number=6.30
smiles_entry=Cc1c2c(n3c1CCCN1C[C@H](O)C[C@@H]1CNc1cc-3ccc1C(N)=O)CC(C)(C)CC2=O bound_sign== readout_number=6.82
smiles_entry=Cc1c2c(n3c1CCCN1CCC[C@@H](C1)Nc1cc-3ccc1C(N)=O)CC(C)(C)CC2=O bound_sign== readout_number=7.11
smiles_entry=CC(=O)N[C@H]1C[C@@H]2CNc3cc(ccc3C(N)=O)-n3c(c(C)c4c3CC(C)(C)CC4=O)CCCN2C1 bound_sign== readout_number=6.20
smiles_entry=CC(=O)N1CCN2CCCc3c(C)c4c(n3-c3ccc(C(N)=O)c(c3)NC[C@H]2C1)CC(C)(C)CC4=O bound_sign== readout_number=6.97
smiles_entry=Cc1c2c(n3c1CCCN1CC[C@@H](CNc4cc-3ccc4C(N)=O)C1)CC(C)(C)CC2=O bound_sign=< readout_number=5.30
smiles_entry=Cc1c2c(n3c1CCCN1CC[C@@H](C1)Nc1cc-3ccc1C(N)=O)CC(C)(C)CC2=O bound_sign== readout_number=6.01

* * *

- procedure-text: Half life in mouse liver microsomes
- Format: ADME, Microsome
Reported half-life values for the following molecules.
quantity-name: half-life (min)

smiles_entry=Cc1c2c(n3c1CCCN1CCOC[C@@H]1CNc1cc-3ccc1C(N)=O)CC(C)(C)CC2=O bound_sign== readout_number=7
smiles_entry=Cc1c2c(n3c1CCCN1C[C@@H](F)C[C@@H]1CNc1cc-3ccc1C(N)=O)CC(C)(C)CC2=O bound_sign== readout_number=5
smiles_entry=Cc1c2c(n3c1CCCN1CC[C@H](CNc4cc-3ccc4C(N)=O)C1)CC(C)(C)CC2=O bound_sign=> readout_number=30
smiles_entry=Cc1c2c(n3c1CCCCN1CCC[C@@H]1CNc1cc-3ccc1C(N)=O)CC(C)(C)CC2=O bound_sign== readout_number=11
smiles_entry=Cc1c2c(n3c1CCCN1CCC[C@@H](C1)Nc1cc-3ccc1C(N)=O)CC(C)(C)CC2=O bound_sign== readout_number=3
smiles_entry=CC(=O)N1CCN2CCCc3c(C)c4c(n3-c3ccc(C(N)=O)c(c3)NC[C@H]2C1)CC(C)(C)CC4=O bound_sign== readout_number=5
smiles_entry=Cc1c2c(n3c1CCCN1CCCC[C@@H]1CNc1cc-3ccc1C(N)=O)CC(C)(C)CC2=O bound_sign== readout_number=27
smiles_entry=Cc1c2c(n3c1CCCN1CCCC[C@@H]1[C@H](C)Nc1cc-3ccc1C(N)=O)CC(C)(C)CC2=O bound_sign== readout_number=6

* * *

- system-under-test: CYP2C9 (Homo sapiens, UniProt P11712)
- Sequence (P11712 whole entry): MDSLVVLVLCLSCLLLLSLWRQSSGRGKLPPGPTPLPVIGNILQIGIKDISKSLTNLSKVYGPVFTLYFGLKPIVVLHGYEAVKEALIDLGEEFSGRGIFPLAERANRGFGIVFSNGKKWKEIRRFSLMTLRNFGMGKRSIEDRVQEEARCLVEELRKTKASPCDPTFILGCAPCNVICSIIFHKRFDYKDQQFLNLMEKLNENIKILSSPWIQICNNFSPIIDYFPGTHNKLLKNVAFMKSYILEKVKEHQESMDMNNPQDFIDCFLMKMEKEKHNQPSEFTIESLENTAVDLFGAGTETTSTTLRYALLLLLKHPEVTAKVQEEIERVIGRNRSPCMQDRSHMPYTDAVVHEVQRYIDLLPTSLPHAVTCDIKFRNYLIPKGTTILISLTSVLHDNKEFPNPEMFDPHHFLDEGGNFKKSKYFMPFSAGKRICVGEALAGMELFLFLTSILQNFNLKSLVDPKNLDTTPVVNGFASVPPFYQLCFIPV
- procedure-text: Inhibition of CYP2C9 at 3 uM
- Assay type: ADME
Assign TRUE to entries whose inhibition at 3 µM meets or exceeds 10%; assign FALSE to the rest.

smiles_entry=Cc1c2c(n3c1CCCN1C[C@@H](N4CCCC4)C[C@@H]1CNc1cc-3ccc1C(N)=O)CC(C)(C)CC2=O cat=FALSE
smiles_entry=Cc1c2c(n3c1CCCCN1CCC[C@@H]1CNc1cc-3ccc1C(N)=O)CC(C)(C)CC2=O cat=FALSE
smiles_entry=Cc1c2c(n3c1CCCN1CCCC[C@@H]1[C@H](C)Nc1cc-3ccc1C(N)=O)CC(C)(C)CC2=O cat=FALSE
smiles_entry=Cc1c2c(n3c1CCCN1C[C@@H](F)C[C@@H]1CNc1cc-3ccc1C(N)=O)CC(C)(C)CC2=O cat=TRUE
smiles_entry=Cc1c2c(n3c1CCCN1CC[C@H](CNc4cc-3ccc4C(N)=O)C1)CC(C)(C)CC2=O cat=FALSE
smiles_entry=Cc1c2c(n3c1CCCN1CCOC[C@@H]1CNc1cc-3ccc1C(N)=O)CC(C)(C)CC2=O cat=TRUE
smiles_entry=Cc1c2c(n3c1CCCN1CCC[C@@H]1CNc1cc-3ccc1C(N)=O)CC(C)(C)CC2=O cat=FALSE
smiles_entry=Cc1c2c(n3c1CCCN1CCCC[C@@H]1CNc1cc-3ccc1C(N)=O)CC(C)(C)CC2=O cat=FALSE
smiles_entry=Cc1c2c(n3c1CCCN1CCC[C@@H](C1)Nc1cc-3ccc1C(N)=O)CC(C)(C)CC2=O cat=TRUE
smiles_entry=Cc1c2c(n3c1CCCNC(=O)[C@H](C)Nc1cc-3ccc1C(N)=O)CC(C)(C)CC2=O cat=TRUE
smiles_entry=Cc1c2c(n3c1CCCN1C[C@H](O)C[C@@H]1CNc1cc-3ccc1C(N)=O)CC(C)(C)CC2=O cat=FALSE
smiles_entry=Cc1c2c(n3c1CCCN1CCNC[C@H]1CNc1cc-3ccc1C(N)=O)CC(C)(C)CC2=O cat=TRUE
smiles_entry=Cc1c2c(n3c1CCCN1CC[C@@H](C1)Nc1cc-3ccc1C(N)=O)CC(C)(C)CC2=O cat=TRUE
smiles_entry=CC(=O)N1CCN2CCCc3c(C)c4c(n3-c3ccc(C(N)=O)c(c3)NC[C@H]2C1)CC(C)(C)CC4=O cat=TRUE
smiles_entry=Cc1c2c(n3c1CCN1CCC[C@@H]1CNc1cc-3ccc1C(N)=O)CC(C)(C)CC2=O cat=FALSE
